The values you see were collected from ChEMBL document CHEMBL1949635.

- targetOfAssay: Prostaglandin D2 receptor 2 (Homo sapiens)
- Sequence (Q9Y5Y4 whole entry): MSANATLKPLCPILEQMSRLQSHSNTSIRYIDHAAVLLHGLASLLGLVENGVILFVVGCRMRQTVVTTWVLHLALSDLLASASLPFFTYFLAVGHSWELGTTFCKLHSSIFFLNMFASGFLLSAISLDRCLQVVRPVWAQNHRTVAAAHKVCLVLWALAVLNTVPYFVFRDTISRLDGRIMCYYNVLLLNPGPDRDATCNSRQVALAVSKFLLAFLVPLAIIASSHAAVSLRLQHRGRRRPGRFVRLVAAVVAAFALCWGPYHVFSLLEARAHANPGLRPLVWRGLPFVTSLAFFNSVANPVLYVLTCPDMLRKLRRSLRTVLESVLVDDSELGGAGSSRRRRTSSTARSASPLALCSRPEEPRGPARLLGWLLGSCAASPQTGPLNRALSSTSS
- experimentalProtocol: Displacement of [3H]-PGD2 from human CRTH2 receptor expressed in human HEK293 cells by scintillation counter in presence of 50% human plasma
- Assay type: cell-based
Let's look at some compounds and their measured IC50.
Give a bare numeral; the unit nM is implied.

Answered cases to consult:
CCCCNC(=O)c1ccc(Oc2ccc(CC(=O)O)cc2F)c(NS(=O)(=O)c2ccc(Cl)cc2Cl)c1; 110
CC(C)(C)NC(=O)c1ccc(Oc2cc(F)c(CC(=O)O)cc2Cl)c(NS(=O)(=O)c2ccc(OC(F)(F)F)cc2Cl)c1; 19

Next, consider the following compound.
The value of IC50 recorded for `O=C(O)Cc1ccc(Oc2ccc(C(=O)NC3CCC3)cc2NS(=O)(=O)c2ccc(Cl)cc2Cl)c(Cl)c1` when tested on Prostaglandin D2 receptor 2 (Homo sapiens) reads 19
